Listed binders paired with reported optical density
study-target: mouse ACVR2A (mouse, UniProt P27038 20-135, limits assumed); note: test concentration or dose not given here
Sequence (P27038 20-135 limits assumed): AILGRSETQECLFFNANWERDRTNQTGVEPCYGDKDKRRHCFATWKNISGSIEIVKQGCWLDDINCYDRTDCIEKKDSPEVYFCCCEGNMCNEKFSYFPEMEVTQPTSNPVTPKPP
experiment-summary: ELISA
measured-endpoint: optical density (OD)

>>> experimental_result("368_G11 (antibody, V domains shown, Group II) VH: EVQLLESGGGLVQPGGSLRLSCAASGFTFDSYGMHWVRQAPGKGLEWVSGINYNSGYKSYADSVKGRFTISRDNSKNTLYLQMNSLRAEDTAVYYCARAATWHDTALDYWGQGTLVTVSS VL: DIQMTQSPSSLSASVGDRVTITCRASQSILTYLNWYQQKPGKAPKLLIYAATSRASGVPSRFSGSGSGTDFTLTISSLQPEDFATYYCQQSDNTPLTFGGGTKVEIK")
2.37
>>> experimental_result("367_E10 (antibody, V domains shown, Group II) VH: EVQLLESGGGLVQPGGSLRLSCAASGFTFSSYGMHWVRQAPGKGLEWVSSINYNGGYTGYADSVKGRFTISRDNSKNTLYLQMNSLRAEDTAVYYCARAATWHDTHLDYWGQGTLVTVSS VL: DIQMTQSPSSLSASVGDRVTITCRASQSILSYVNWYQQKPGKAPKLLIYAATSRASGVPSRFSGSGSGTDFTLTISSLQPEDFATYYCQQSYELPLTFGGGTKVEIK")
2.98
>>> experimental_result("365_G05 (antibody, V domains shown, Group III) VH: EVQLLESGGGLVQPGGSLRLSCAASGFTFSSYGMNWVRQAPGKGLEWVSGINYNGGYKGYADSVKGRFTISRDNSKNTLYLQMNSLRAEDTAVYYCARGANWHDTALDYWGQGTLVTVSS VL: DIQMTQSPSSLSASVGDRVTITCRASQSILSYLNWYQQKPGKAPKLVIYAATSLASGVPSRFSGSGSGTDFTLTISSLQPEDFATYYCQQSYENPLTFGGGTKVEIK")
2.54
>>> experimental_result("371_G07 (antibody, V domains shown, Group II) VH: EVQLLESGGGLVQPGGSLRLSCAASGFTFSDYGMHWVRQAPGKGLEWVAGINYNGGYTSYADSVKGRFTISRDNSKNTLYLQMNSLRAEDTAVYYCARAATWHDTHLDYWGQGTLVTVSS VL: DIQMTQSPSSLSASVGDRVTITCRASQSIVSYVNWYQQKPGKAPKLVIYAATSRASGVPSRFSGSGSGTDFTLTISSLQPEDFATYYCQQSYSLPLTFGGGTKVEIK")
2.99
>>> experimental_result("367_D11 (antibody, V domains shown, Group I) VH: EVQLLESGGGLVQPGGSLRLSCAASGFTFDSYGMHWVRQAPGKGLEWVSNINYNGGYKSYADSVKGRFTISRDNSKNTLYLQMNSLRAEDTAVYYCARAANWHDTALDYWGQGTLVTVSS VL: DIQMTQSPSSLSASVGDRVTITCRASQSIISYLNWYQQKPGKAPKLLIYAATSRASGVPSRFSGSGSGTDFTLTISSLQPEDFATYYCQQSYDSPLTFGGGTKVEIK")
2.54
>>> experimental_result("367_C09 (antibody, V domains shown, Group I) VH: EVQLLESGGGLVQPGGSLRLSCAASGFTFDSYGMHWVRQAPGKGLEWVASINYNGGYTSYADSVKGRFTISRDNSKNTLYLQMNSLRAEDTAVYYCARAANWHDTHLDYWGQGTLVTVSS VL: DIQMTQSPSSLSASVGDRVTITCRASQSILSYVNWYQQKPGKAPKLVIYAATSRHSGVPSRFSGSGSGTDFTLTISSLQPEDFATYYCQQSYNTPLTFGGGTKVEIK")
2.77
>>> experimental_result("365_H07 (antibody, V domains shown, Group III) VH: EVQLLESGGGLVQPGGSLRLSCAASGFTFDSYSMNWVRQAPGKGLEWVSGINYNGGYTSYADSVKGRFTISRDNSKNTLYLQMNSLRAEDTAVYYCARGANWHDTHLDYWGQGTLVTVSS VL: DIQMTQSPSSLSASVGDRVTITCRASQSISTYVNWYQQKPGKAPKLLIYAATSRHSGVPSRFSGSGSGTDFTLTISSLQPEDFATYYCQQSYENPLTFGGGTKVEIK")
2.75
>>> experimental_result("368_B12 (antibody, V domains shown, Group II) VH: EVQLLESGGGLVQPGGSLRLSCAASGFTFDSYGMHWVRQAPGKGLEWVSGINYNSGYTSYADSVKGRFTISRDNSKNTLYLQMNSLRAEDTAVYYCARAATWHDTHLDYWGQGTLVTVSS VL: DIQMTQSPSSLSASVGDRVTITCRASQSIVSYVNWYQQKPGKAPKLLIYAATSRASGVPSRFSGSGSGTDFTLTISSLQPEDFATYYCQQSYDLPLTFGGGTKVEIK")
2.47
>>> experimental_result("365_F03 (antibody, V domains shown, Group III) VH: EVQLLESGGGLVQPGGSLRLSCAASGFTFDSYSMNWVRQAPGKGLEWVSSINYNGGYTSYADSVKGRFTISRDNSKNTLYLQMNSLRAEDTAVYYCARGANWHDTHLDYWGQGTLVTVSS VL: DIQMTQSPSSLSASVGDRVTITCRASQSILSYLNWYQQKPGKAPKLLIYAATSRASGVPSRFSGSGSGTDFTLTISSLQPEDFATYYCQQSYDNPLTFGGGTKVEIK")
2.99
>>> experimental_result("365_B10 (antibody, V domains shown, Group I) VH: EVQLLESGGGLVQPGGSLRLSCAASGFTFDDYSMHWVRQAPGKGLEWVASINYNSGYKGYADSVKGRFTISRDNSKNTLYLQMNSLRAEDTAVYYCARAANWHDTALDYWGQGTLVTVSS VL: DIQMTQSPSSLSASVGDRVTITCRASQSILRYLNWYQQKPGKAPKLLIYAATSRASGVPSRFSGSGSGTDFTLTISSLQPEDFATYYCQQSDNLPLTFGGGTKVEIK")
2.78

Data origin, for the record: patent US20210380703A1
